Kindly state pKi for each of the entries shown.
test: Inhibition of Pseudomonas aeruginosa PA3774 using Boc-Lys(trifluoroacetyl)-AMC as substrate preincubated for 30 mins followed by substrate addition measured after 60 mins by trypsin-based fluorescence assay
One number for each entry, as −log10 of the molar value.

O=C(NO)C(F)(F)C(F)(F)C(F)(F)C(F)(F)C(F)(F)C(F)(F)C(=O)Nc1ccc2ccc3cccc4ccc1c2c34 | 6.64
Cc1ccc(NC(=O)C(F)(F)C(F)(F)C(F)(F)C(F)(F)C(F)(F)C(F)(F)C(=O)NO)cc1 | 6.72
CN(C)c1ccc(NC(=O)C(F)(F)C(F)(F)C(F)(F)C(F)(F)C(F)(F)C(F)(F)C(=O)NO)cc1 | 5.57

Record pKi per entry; entries follow.
1. O=C(NO)C(F)(F)C(F)(F)C(F)(F)C(F)(F)C(F)(F)C(F)(F)C(=O)Nc1ccc(I)cc1
2. O=C(NO)C(F)(F)C(F)(F)C(F)(F)C(F)(F)C(F)(F)C(F)(F)C(=O)Nc1cc2ccccc2c2ccccc12

a:
7.34
6.60

====

assay: Inhibition of Pseudomonas aeruginosa PA3774 using Boc-Lys(trifluoroacetyl)-AMC as substrate preincubated for 30 mins followed by substrate addition measured after 60 mins by trypsin-based fluorescence assay
Can you tell me Ki for the items I'm about to list?
Numbers only, in nM.

Known results for molecules:
O=C(NO)C(F)(F)C(F)(F)C(F)(F)C(F)(F)C(F)(F)C(F)(F)C(=O)Nc1ccc2ccccc2c1 | 530
O=C(NO)C(F)(F)C(F)(F)C(F)(F)C(F)(F)C(F)(F)C(F)(F)C(=O)Nc1cccc2ccccc12 | 350
O=C(Nc1ccccc1)C(F)(F)C(F)(F)C(F)(F)C(F)(F)C(F)(F)C(F)(F)C(=O)Nc1ccccc1 | 10000
Cc1ccc(NC(=O)C(F)(F)C(F)(F)C(F)(F)C(F)(F)C(F)(F)C(F)(F)C(=O)NO)cc1C | 100
O=C(NO)C(F)(F)C(F)(F)C(F)(F)C(F)(F)C(F)(F)C(F)(F)C(=O)Nc1cccc(-c2cn(-c3ccccc3)nn2)c1 | 2600

Pending molecule:
q: Which Ki is listed for O=C(NO)C(F)(F)C(F)(F)C(F)(F)C(F)(F)C(F)(F)C(F)(F)C(=O)Nc1ccccc1-c1ccccc1 ?
a: 1100

====

test: Inhibition of Pseudomonas aeruginosa PA3774 using Boc-Lys(trifluoroacetyl)-AMC as substrate preincubated for 30 mins followed by substrate addition measured after 60 mins by trypsin-based fluorescence assay
METRIC: Ki (nM)
Give bare numbers, in nM.

CCc1cccc(NC(=O)C(F)(F)C(F)(F)C(F)(F)C(F)(F)C(F)(F)C(F)(F)C(=O)NO)c1 | 240

Working through the 4 compounds below one at a time, give Ki for each.
1. O=C(NO)C(F)(F)C(F)(F)C(F)(F)C(F)(F)C(F)(F)C(F)(F)C(=O)Nc1nc(-c2ccccc2)cs1
2. O=C(NO)C(F)(F)C(F)(F)C(F)(F)C(F)(F)C(F)(F)C(F)(F)C(=O)Nc1cccc(-c2ccccc2)c1
3. O=C(NO)C(F)(F)C(F)(F)C(F)(F)C(F)(F)C(F)(F)C(F)(F)C(=O)Nc1cccc2cc3ccccc3cc12
4. O=C(NO)C(F)(F)C(F)(F)C(F)(F)C(F)(F)C(F)(F)C(F)(F)C(=O)Nc1ccc(F)cc1

a:
1. 12000
2. 100
3. 1100
4. 460
